assay: qHTS Assay for Lipid Storage Modulators in Drosophila S3 Cells; details: BODIPY lipid droplet fluorescence, 18-24 h, cells fed with added oleic acid; series mostly up to 46.1 µM
Hit rate of the full screen: of about 320,000 compounds, about 2,100 (0.66%) were called active. About 53% were inconclusive and are not listed. The call rests on the fitted dose curve; in most records, active means well fitted inhibition curve with a large enough effect in the signal ratio, with a control signal flat (not every such curve was filed as active); inconclusive means small, poorly fitted or top-dose-only effect, or effect the other way, or a change in a side signal; inactive means flat fitted curve, though single readings scatter; the % refers to the signal ratio. The list comes from a sample in which actives are over-represented; it also holds close analogues and randomly drawn compounds.
Choose the fitting class; nothing outside Y for active, N for inactive is accepted.

A selection of reference data follows.
COc1cc(CC(=O)NCc2ccco2)cc(OC)c1OC :: N
Cc1ccc(S(=O)(=O)N2CCCCC2)cc1C(=O)N1CCN(c2ccccn2)CC1 :: N

IN: Test call, this molecule: `CN(C)S(=O)(=O)c1cccc(C(=O)NCCNC(=O)c2cccc(S(=O)(=O)N(C)C)c2)c1`
OUT: N

---

Experiment: qHTS Assay for Lipid Storage Modulators in Drosophila S3 Cells;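 on cell number change: cells counted by Cell Tracker Red CMTPX staining in the red channel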
Conditions: BODIPY lipid droplet fluorescence, 18-24 h, cells fed with added oleic acid; measured here: cell count max response
Text: NIH Molecular Libraries Probe Production Centers Network [MLPCN] NIH Chemical Genomics Center [NCGC] […] Triacsin C (Sigma-Aldrich T-4540), an inhibitor of long-chain fatty acyl CoA synthetase that blocks synthesis of triglycerides, was used as a positive control for lipid under-storage. […] Fluorescence was detected by excitation of the fluorophores with a 488-nm laser on an Acumen Explorer (TTP Lab Tech). […] Cells were detected using channel 3 (575-640 nm) with 5-um width and 100-um depth filters. […]
Screen size: about 320,000 compounds; about 2,100 (0.66%) were called active. Another 53% or so got no clear call; they are omitted. The sample holds actives, similar compounds and a random draw of the others, so the mix is not that of the screen.
quantity.name: cell number change (%)
Give just the number in %; leave the unit off.

Record excerpt, results attached:
Cc1ccc(C(=O)Nc2cccc(C(=O)O)c2)cc1 :: -13.9
Cc1cccc(C(=O)NC2CCCCCCC2)c1 :: 5.98
O=C(NCCS(=O)(=O)N1CCN(c2ccc(F)cc2)CC1)C1CC(=O)N(c2ccccc2)C1 (stereo unspecified) :: 4.61
O=C1CN(C(=O)c2ccccc2F)C(c2ccc(F)cc2)c2cc(Br)ccc2N1 (stereo unspecified) :: -12.8

Next molecule, please.
// sample `CCOC(=O)[C@H]1[C@H]2COc3ccc(OC)cc3[C@@H]2N2C(=O)c3cc(F)c(F)cc3NC(=O)[C@@]12C` , its cell number change was 10.2

---

test: qHTS Assay for Lipid Storage Modulators in Drosophila S3 Cells; details: BODIPY lipid droplet fluorescence, 18-24 h, cells fed with added oleic acid; measured here: cell count max response;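 on cell number change: cells counted by Cell Tracker Red CMTPX staining in the red channel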
Out of some 320,000 compounds screened, about 2,100 (0.66%) were called active. About 53% were inconclusive and are not listed. For the sample, actives were picked, then their nearest neighbours and some compounds at random.
quantity.name: cell number change (%)
Give just the number in %; leave the unit off.

COc1ccc(-c2c(=O)n(OCc3nc4ccccc4[nH]3)c3ccccc3[n+]2[O-])cc1 :: 2.91

// sample `C=CCN1c2ccccc2[C@]23C[C@@H](C(=O)OC)N=C2NC(C(=O)OC)=C(C(=O)OC)[C@H]13` , its cell number change was 33.7

// sample COC(=O)C(NC(=O)c1ccc(F)cc1)(Nc1ncc(S(=O)(=O)c2ccc([N+](=O)[O-])cc2)s1)C(F)(F)F (centres undefined) , its cell number change was 0.5

// sample `O=[N+]([O-])c1cc2c(cc1Br)CCN2` , its cell number change was -0.505

// sample CCn1c(SCC(=O)Nc2sc3c(c2C#N)CCC(C(C)(C)C)C3)nnc1-c1ccco1 (centres undefined) , its cell number change was -7.68

// sample `O=C(NC(Nc1nc2ccc([N+](=O)[O-])cc2s1)(C(F)(F)F)C(F)(F)F)c1cccnc1` , its cell number change was -11
